All values here come from patent US20220062240A1.

Tested on: pancreatic cancer (8 cell lines)
Assay: CellTiter-Glo Viability Assay, pancreatic cancer
Format: cell-based
Conditions: Homo sapiens, PANC-1, read-out: Pancreatic cancer, EC50 PANC-1
pEC50: −log10 of the molar value.

structure | pEC50
CN1CCN(C(=O)C(C)(C)c2ccc(C(=O)Nc3cn4cc(-c5ccncc5)ccc4n3)cc2)CC1 | 5.33
CN1CCN(c2cc(C(=O)Nc3cc4cc(-c5cnn(C)c5)ccc4cn3)ccn2)CC1 | 6.53
CN1CCC(N(C)c2cc(C(=O)Nc3cc4cc(-c5cnn(C)c5)ccc4cn3)ccn2)CC1 | 6.56

====

Tested on: pancreatic cancer (8 cell lines)
Assay: CellTiter-Glo Viability Assay, pancreatic cancer
Type: cell-based
Conditions: Homo sapiens, BXPC-3; BxPC3 cell line; inhibition of cancer cell proliferation; read-out: Pancreatic cancer, EC50 BxPC3
Procedure: Fifty-one human cancer cell lines (breast cancer (8 cell lines), colorectal cancer (6 cell lines), haematopoietic & lymphoid tumors (13 cell lines), liver cancer (3 cell lines), lung cancer (4 cell lines), ovarian cancer (4 cell lines), pancreatic cancer (8 cell lines), and prostate cancer (5 cell lines)) were tested to determine the effects of representative compounds of Formulas (I)-(XII) on cellular proliferation, as evaluated using the CellTiter-Glo® Viability Assay. […]
pEC50: −log10 of the molar value.
Label rule, in plain words: pEC50 of 6 and up is 1 (yes), under 6 is 0 (no).

structure | answer label
CC(C)CC(=O)Nc1cncc(-c2ccc3[nH]nc(-c4cc5c(N6CCCCC6)cncc5[nH]4)c3c2)c1 | 0 (no)
CN1CCCCN(C)c2nccc3[nH]c(nc23)-c2n[nH]c3ccc(cc23)-c2cncc(c2)C1 | 1 (yes)
CN1CCN(c2ccc(NC(=O)c3n[nH]c4ccc(-c5cncc(NC(=O)C6CC6)c5)cc34)cn2)CC1 | 0 (no)
Cc1n[nH]c2cc(F)c(-c3cncc(CN4CCNCC4)c3)cc12 | 0 (no)
O=C(Nc1ccc(OCCN2CCCC2)cc1)c1n[nH]cc1/C=C/c1cccnc1 | 0 (no)
O=C1CCc2cccc(c2)-c2cncc(c2)NC(=O)c2n[nH]c3ccc(cc23)-c2cncc(c2)CN1 | 0 (no)
Cc1n[nH]c2ccc(-c3cncc(N[C@H]4CC[C@@H](N)CC4)n3)cc12 | 1 (yes)
O=C1CCc2cccc(c2)-c2cncc3[nH]c(nc23)-c2n[nH]c3ccc(cc23)-c2cncc(c2)N1 | 0 (no)
CN1CCC(C(=O)Nc2c[nH]nc2-c2nc3c(-c4ccc(F)s4)cccc3[nH]2)CC1 | 1 (yes)
CN(C)CCOc1cc(C(=O)Nc2cc3cc(-c4cnn(C)c4)ccc3cn2)ccn1 | 1 (yes)
c1cncc(-c2ccc3[nH]nc(-c4cc5c(-c6cccnc6)cncc5[nH]4)c3c2)c1 | 0 (no)
CN(C)C1CCN(c2cc(C(=O)Nc3ncc4ccc(-c5cn(C)nn5)cc4n3)ccn2)CC1 | 0 (no)
CN1CC=C(c2cc(C(=O)Nc3cc4cc(-c5cncc(NC(C)(C)C)n5)cnc4cn3)ccn2)CC1 | 0 (no)
CN1CCN(c2cc(C(=O)Nc3cc4cc(-c5cnn(C)c5N)ccc4cn3)ccn2)CC1 | 1 (yes)
CN1CCC2(CC1)CN(c1cc(C(=O)Nc3cc4cc(-c5cnn(C)c5CO)ccc4cn3)ccn1)C2 | 0 (no)
CN1CCC(Oc2ccc(C(=O)Nc3cc4cc(-c5cnn(C)c5)ccc4cn3)cc2)CC1 | 1 (yes)
CN1CCC2(CC1)CN(c1cc(C(=O)Nc3cc4cc(-c5cnn(C)c5)ccc4cn3)ccn1)C2 | 1 (yes)
CN(C)Cc1cncc(-c2ccc3[nH]nc(-c4cc5c(-c6ccoc6)ccnc5[nH]4)c3c2)c1 | 0 (no)
CC(C)Nc1cncc(-c2ccc3cnc(NC(=O)c4cn(C5CCN(CCF)CC5)nn4)cc3c2)n1 | 1 (yes)
O=C1COc2cccc(c2)-c2cncc3[nH]c(nc23)-c2n[nH]c3ccc(cc23)-c2cncc(c2)N1 | 0 (no)
